- SYSTEM: T1, human transferrin receptor (recombinant, for surface plasmon resonance) (human, UniProt P02786 89-760)
- T1 construct: also called huTfR; human transferrin receptor-biotinylated
- T1 sequence (P02786 89-760 limits assumed): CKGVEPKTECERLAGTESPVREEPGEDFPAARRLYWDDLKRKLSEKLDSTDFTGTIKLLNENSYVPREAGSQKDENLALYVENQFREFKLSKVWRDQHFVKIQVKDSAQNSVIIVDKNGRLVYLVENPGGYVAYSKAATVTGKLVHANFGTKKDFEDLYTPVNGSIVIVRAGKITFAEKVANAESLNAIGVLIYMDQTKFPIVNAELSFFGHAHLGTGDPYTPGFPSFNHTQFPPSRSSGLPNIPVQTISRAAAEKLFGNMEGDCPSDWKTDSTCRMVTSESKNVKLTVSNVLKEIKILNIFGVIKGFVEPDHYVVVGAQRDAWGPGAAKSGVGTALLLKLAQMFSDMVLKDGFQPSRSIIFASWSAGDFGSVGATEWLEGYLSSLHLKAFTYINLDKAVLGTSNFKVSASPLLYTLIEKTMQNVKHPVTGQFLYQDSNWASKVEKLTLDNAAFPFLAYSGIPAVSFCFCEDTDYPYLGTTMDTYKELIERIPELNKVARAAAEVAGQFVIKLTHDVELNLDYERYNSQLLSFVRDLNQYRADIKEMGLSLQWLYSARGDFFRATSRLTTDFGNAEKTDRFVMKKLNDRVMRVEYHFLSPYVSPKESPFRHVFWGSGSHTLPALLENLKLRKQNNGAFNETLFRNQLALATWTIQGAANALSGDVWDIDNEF
- ASSAY_OVERVIEW: SPR 25C

{"columns": ["BINDER", "koff (s⁻¹)"],
 "data": [
  ["2/99 VH12/VL4 (antibody, V domains shown) VH: QVQLQESGPGLVKPSETLSLTCTVSGFSLSSYAMSWIRQPPGKGLEWIGYIWSGGSTDYNPSLKSRVTISVDTSKNQFSLKLSSVTAADTAVYYCARRYGTSYPDYGDANGFDPWGQGTLVTVSS VL: AYQMTQSPSSLSASVGDRVTITCRASQSISSYLSWYQQKPGKAPKLLIYRASTLASGVPSRFSGSGSGTDFTLTISSLQPEDFATYYCQQSYSSSNVDNTFGGGTKVEIK", 0.00311],
  ["2/99 VH20/VL5 (antibody, V domains shown) VH: QSMQESGPGLVKPSQTLSLTCTVSGFSLSSYAMSWIRQHPGKGLEWIGYIWSGGSTDYAPSLKSRVTISVDTSKNQVSLKLSSVTAADTAVYYCARRYGTSYPDYGDANGFDPWGQGTLVTVSS VL: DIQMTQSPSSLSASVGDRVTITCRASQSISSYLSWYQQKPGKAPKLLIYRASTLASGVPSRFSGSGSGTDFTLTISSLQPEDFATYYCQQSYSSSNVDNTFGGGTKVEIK", 0.00352],
  ["2/99 VH21/VL7 (antibody, V domains shown) VH: QSMQESGPGLVKPSQTLSLTCTVSGFSLSSYAMSWIRQHPGKGLEWIGYIWSGGSTDYASWAKSRVTISVDTSKNQVSLKLSSVTAADTAVYYCARRYGTSYPDYGDANGFDPWGQGTLVTVSS VL: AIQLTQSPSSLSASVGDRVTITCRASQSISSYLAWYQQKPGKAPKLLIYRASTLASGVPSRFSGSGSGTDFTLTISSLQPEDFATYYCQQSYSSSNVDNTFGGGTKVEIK", 0.00238]
]}
